Test system: NCI-H522 lung
Assay: NCI-60 one-dose screen, 48 h (100 = growth as untreated, 0 = no growth, -100 = all killed)
Conditions: 10 µM unless noted
The panel holds about 83,000 compounds, 20% with a hit somewhere; the sample as a whole holds those more often.
For each record, write down the corresponding growth.
Give bare numbers, in %.

Below, each entry is followed by its recorded growth result.
MOLECULE	growth [%]
COc1cc2c3c(n(CCCNC4CCCC4)c(=O)c2cc1OC)-c1cc2c(cc1C3=O)OCO2	54.6
Cc1cc(F)cc(NS(=O)(=O)c2ccc(-c3cnc(C4CC4)o3)cc2)c1	8.89
COc1ccc(N2C(=O)c3cc(OC)c(OC)cc3NC2SCc2ccccc2)cc1 (configuration not stated)	95.2
Cn1cc(-c2nn3c(=O)cc(-c4ccccc4)nc3s2)c2cc(F)ccc21	-37.4
CN1C(=O)/C(=C/C=C/c2ccco2)SC1=S	71.3

For the 2 molecules below, give their growth values.
1. Cc1ccc(/C=C/c2nn3c(-c4ccco4)nnc3s2)cc1
2. CN(C)C(=O)c1ccccc1-n1cnc2ccccc2c1=O

Reply text:
[94.4, 101]

###

Kindly supply the reported growth values for the records listed here.
Test system: U251 CNS
Assay: NCI-60 one-dose screen, 48 h (100 = growth as untreated, 0 = no growth, -100 = all killed)
Conditions: 10 µM unless noted
About 83,000 compounds went through this panel and 20% of them were active in at least one assay; those are over-represented in the sample as a whole.
One number for each entry, in %.

Sample answers from the record:
MOLECULE	growth (%)
O=c1[nH]c(CNc2ccc(NCc3c(-c4ccccc4)no[n+]3[O-])cc2)nc2c1cnn2-c1ccccc1	85.5
COc1ccc2c(C3=C(c4c[nH]c5ccccc45)C(=O)N(O)C3=O)coc2c1	98
Nc1nc(N)c2c(n1)NC(c1ccc(Cl)cc1)CC(c1ccc(Nc3nc(NCCO)nc(Nc4ccc(Cl)cc4)n3)cc1)=N2 (stereo not given)	-35.6
Cc1cn(-c2cc(NC(=O)c3cncc(C#Cc4cnc5ccc(OCCCS(C)(=O)=O)nn45)c3)cc(C(F)(F)F)c2)cn1	26.8

Inquiry: # lookup: growth of CCn1c2ccc(/C=N/OCCCN(C)C)cc2c2cc(/C=N/OCCCN(C)C)ccc21
Reply text: -30.9

###

System: MCF7 breast
Assay: NCI-60 one-dose screen, 48 h
Conditions: 10 µM unless noted
About 83,000 compounds went through this panel and 20% of them were active in at least one assay; those are over-represented in the sample as a whole. Calls of active or inactive are those of the source. Rule for the calls: active = growth percent below 10; inactive = the rest.
Assign a class; possible classes are Yes (active), No (inactive)

For orientation, consider the following solved cases.
MOLECULE	ASSIGNED_CLASS
CCC(=O)Nc1cc(Nc2cc(NC3CC3)n3ncc(C#N)c3n2)ccc1C	Yes
CN1CCN(c2ccc(NC(=O)Nc3ccc4c(ccn4-c4cccc(C(N)=O)n4)c3)cc2C(F)(F)F)CC1	No
CSc1nccc(-c2c(-c3ccc(F)c(OCc4ccc(F)cc4)c3)nc3sccn23)n1	No
Cc1cc(-c2ccc3nc(N)sc3c2)nc2ccc3[nH]ncc3c12	No
C(=C(\C1=NCCN1)n1cnc2ccccc21)/c1ccc2ccccc2c1	No
NS(=O)(=O)c1ccc(Nc2nc(N/N=C/c3ccc([N+](=O)[O-])cc3)nc(Nc3ccccc3)n2)cc1	Yes

Inquiry: Identify the outcome logged in this assay for the molecule shown: O=S(=O)(NCCCNc1nccc(-n2cnc3ccccc32)n1)c1ccc(F)cc1
Reply text: No

Inquiry: Hey, what did the test say about CC(C)=CCC[C@](C)(O)[C@H]1CC[C@]2(C)[C@@H]1CC[C@@H]1[C@@]3(C)CCC(NC(=O)c4ccccc4C(=O)O)C(C)(C)[C@@H]3CC[C@]12C (stereo partly drawn) ?
Reply text: No

Inquiry: Tell me the recorded outcome of this test for Nc1nc(-c2cccc([N+](=O)[O-])c2)c(N=Nc2cccc(Cl)c2)s1 .
Reply text: No

Inquiry: Which result was noted for this molecule in the test: Oc1ccc(CSc2nnc(-c3ccccc3)n2-c2ccccc2)c2cccnc12
Reply text: Yes

Inquiry: What outcome does the record of this test show for COc1ccc(-c2nc3cc(Cl)c(Cl)cc3n2CC(=O)N=Nc2c(O)[nH]c3ccc(Br)cc23)cc1 ?
Reply text: Yes

Inquiry: What did this assay record as the result for Oc1ccccc1-c1nnc(SCc2ccc(O)c3ncccc23)o1 ?
Reply text: Yes
